All figures here come from ChEMBL document CHEMBL2062511.

test.description: Therapeutic index, ratio of TC50 for human CEM-SS cells to EC50 for HIV-1 subtype 3B infected in CEM-SS cells
Assay type: cell-based
stated.conditions: uninfected and infected with HIV-1 subtype 3B, read-out: TI
property.name: selectivity ratio

Consider the following illustrative entries.
Nc1ccn([C@@H]2CS[C@H](COC(=O)CCCCCCCCCCCCC(=O)OC[C@@H]3O[C@H](n4ccc(N)nc4=O)CS3)O2)c(=O)n1
> 333
Cc1cn([C@H]2C[C@H](F)[C@@H](COC(=O)CCCCCCCCCCC(=O)OC[C@H]3O[C@@H](n4cc(C)c(=O)[nH]c4=O)C[C@@H]3F)O2)c(=O)[nH]c1=O
> 250
Nc1ccn([C@@H]2CS[C@H](CO)O2)c(=O)n1
> 2.5
Nc1ccn([C@@H]2CS[C@H](COC(=O)CCCCCCCCCCC(=O)OC[C@@H]3O[C@H](n4ccc(N)nc4=O)CS3)O2)c(=O)n1
> 333
Nc1ccn([C@@H]2CS[C@H](COC(=O)CCCCCCCCC(=O)OC[C@@H]3O[C@H](n4ccc(N)nc4=O)CS3)O2)c(=O)n1
> 33

Now look at this entry.
// query Given the entry Cc1cn([C@H]2C[C@H](N=[N+]=[N-])[C@@H](COC(=O)CCCCCCCCCCCCC(=O)OC[C@H]3O[C@@H](n4cc(C)c(=O)[nH]c4=O)C[C@@H]3N=[N+]=[N-])O2)c(=O)[nH]c1=O , report its measured selectivity ratio.
// result > 333

###

test.description: Therapeutic index, ratio of TC50 for human CEM-SS cells to EC50 for HIV-1 subtype 3B infected in CEM-SS cells
Assay type: cell-based
stated.conditions: uninfected and infected with HIV-1 subtype 3B, read-out: TI
Listed here: items and their measured selectivity ratio.

Example entries begin here.
Cc1cn([C@H]2C[C@H](N=[N+]=[N-])[C@@H](CO)O2)c(=O)[nH]c1=O
> 250
Cc1cn([C@H]2C[C@H](N=[N+]=[N-])[C@@H](COC(=O)CCCCCCCCC(=O)OC[C@H]3O[C@@H](n4cc(C)c(=O)[nH]c4=O)C[C@@H]3N=[N+]=[N-])O2)c(=O)[nH]c1=O
> 200
Cc1cn([C@H]2C[C@H](F)[C@@H](CO)O2)c(=O)[nH]c1=O
> 25
Cc1cn([C@H]2C[C@H](F)[C@@H](COC(=O)CCCCCCCCCCCCC(=O)OC[C@H]3O[C@@H](n4cc(C)c(=O)[nH]c4=O)C[C@@H]3F)O2)c(=O)[nH]c1=O
> 333
Nc1ccn([C@@H]2CS[C@H](COC(=O)CCC(=O)OC[C@@H]3O[C@H](n4ccc(N)nc4=O)CS3)O2)c(=O)n1
> 7.7
Cc1cn([C@H]2C[C@H](N=[N+]=[N-])[C@@H](COC(=O)CCCCCCCCCCC(=O)OC[C@H]3O[C@@H](n4cc(C)c(=O)[nH]c4=O)C[C@@H]3N=[N+]=[N-])O2)c(=O)[nH]c1=O
> 250

Proceed to the following item.
// query I'd like to know its selectivity ratio. The compound in question is Cc1cn([C@H]2C[C@H](F)[C@@H](COC(=O)CCCCCCCCC(=O)OC[C@H]3O[C@@H](n4cc(C)c(=O)[nH]c4=O)C[C@@H]3F)O2)c(=O)[nH]c1=O
// result > 250
